# Kd listing for each entry below
Biological target: T1, Recombinant human IL-18 (human, UniProt Q14116 37-193)
T1 construct: Used unlabeled or biotinylated depending on the assay step; also called Hu IL-18; hr IL-18
T1 sequence: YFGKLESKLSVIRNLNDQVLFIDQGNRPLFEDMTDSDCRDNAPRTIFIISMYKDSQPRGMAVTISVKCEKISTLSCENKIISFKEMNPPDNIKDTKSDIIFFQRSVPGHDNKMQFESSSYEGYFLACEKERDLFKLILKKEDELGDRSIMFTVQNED
Experiment: solution equilibrium titration (SET), ECL detection

| binder | Kd |
| --- | --- |
| MOR09466 (antibody, human IgG1, lambda, L234A L235A, V domains shown, also called MOR9466) VH: EVQLVQSGAEVKKPGSSVKVSCKASGGTFNSYAISWVRQAPGQGLEWMGNIIPYSGFAYYAQKFQGRVTITADESTSTAYMELSSLRSEDTAVYYCARAAYHPLVFDNWGQGTLVTVSS VL: DIVLTQPPSVSGAPGQRVTISCSGSSSNIGNHYVNWYQQLPGTAPKLLIYRNNHRPSGVPDRFSGSKSGTSASLAITGLQSEDEADYYCQSWDYSGFSTVFGGGTKLTVLG | 5 pM |
| MOR08776 (antibody, human IgG1, lambda, V domains shown, also called MOR8776) VH: QVQLQESGPGLVKPGETLSLTCTVSGGSISTGSYYWNWIRQAPGKGLEWIGEINHMGITYYNPSLKGRVTISVDTSKNQFSLKLSSVTAEDTAVYYCARTTRYWMSHILAYGMDYWGQGTLVTVSS VL: DIVLTQPPSVSGAPGQRVTISCSGSSSNIGNHYVSWYQQLPGTAPKLLIYANTKRPSGVPDRFSGSKSGTSASLAITGLQSEDEADYYCSSYDGSQSIVFGGGTKLTVLG | 38 pM |
| MOR10502 (antibody, human IgG1, lambda, L234A L235A, V domains shown, also called MOR010502) VH: EVQLQESGPGLVKPGETLSLTCTVSGGSISTGSYYWNWIRQAPGKGLEWIGEIHGHGFTFYNPSLKSRVTISVDTSKNQFSLKLSSVTAADTAVYYCARTTRYWMSHILAYGMDYWGQGTLVTVSS VL: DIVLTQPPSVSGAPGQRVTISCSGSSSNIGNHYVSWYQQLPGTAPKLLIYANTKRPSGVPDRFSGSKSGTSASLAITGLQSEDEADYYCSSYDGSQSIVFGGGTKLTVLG | 4 pM |
| MOR09465 (antibody, human IgG1, lambda, L234A L235A, V domains shown, also called MOR9465) VH: EVQLVQSGAEVKKPGSSVKVSCKASGGTFNSYAISWVRQAPGQGLEWMGNIIPHYGFAYYAQKFQGRVTITADESTSTAYMELSSLRSEDTAVYYCARAAYHPLVFDNWGQGTLVTVSS VL: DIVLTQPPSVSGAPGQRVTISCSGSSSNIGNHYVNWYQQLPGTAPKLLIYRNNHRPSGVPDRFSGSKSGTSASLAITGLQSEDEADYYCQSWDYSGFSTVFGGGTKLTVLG | 6 pM |
| MOR09441 (antibody, human IgG1, lambda, L234A L235A, V domains shown, also called MOR9441) VH: EVQLVQSGAEVKKPGSSVKVSCKASGGTFNSYAISWVRQAPGQGLEWMGWINPFYIGETFYAQKFQGRVTITADESTSTAYMELSSLRSEDTAVYYCARAAYHPLVFDNWGQGTLVTVSS VL: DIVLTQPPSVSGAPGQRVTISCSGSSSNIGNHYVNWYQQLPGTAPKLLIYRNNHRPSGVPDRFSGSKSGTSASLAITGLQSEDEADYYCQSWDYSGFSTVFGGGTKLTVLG | 1 pM |
